system name: Serine/threonine-protein kinase Chk1 (Homo sapiens, UniProt O14757)
Sequence (O14757 whole entry): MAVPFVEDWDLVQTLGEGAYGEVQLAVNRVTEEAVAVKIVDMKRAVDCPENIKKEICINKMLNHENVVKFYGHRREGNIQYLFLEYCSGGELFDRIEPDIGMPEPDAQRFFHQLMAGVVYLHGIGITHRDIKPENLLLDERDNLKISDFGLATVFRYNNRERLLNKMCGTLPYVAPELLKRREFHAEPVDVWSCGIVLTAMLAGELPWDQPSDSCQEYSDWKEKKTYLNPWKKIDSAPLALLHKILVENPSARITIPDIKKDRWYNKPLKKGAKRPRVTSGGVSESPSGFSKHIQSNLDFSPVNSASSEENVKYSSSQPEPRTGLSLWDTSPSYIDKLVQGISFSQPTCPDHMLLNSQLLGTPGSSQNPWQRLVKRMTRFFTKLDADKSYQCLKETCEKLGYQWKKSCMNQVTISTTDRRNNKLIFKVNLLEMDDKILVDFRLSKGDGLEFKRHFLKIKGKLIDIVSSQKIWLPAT
Strictly below 0.01 µM in IC50: T. Otherwise: F.

# compound, system name, answer label
measured = [
    ("N#Cc1ncc2nc1OCCCCCOc1ccc(OCCO)cc1NC(=O)N2", "Serine/threonine-protein kinase Chk1 (Homo sapiens, UniProt O14757)", "F"),
    ("N#Cc1ncc2nc1OC/C=C\\COc1ccc(OCCCCN3CCOCC3)cc1NC(=O)N2", "Serine/threonine-protein kinase Chk1 (Homo sapiens, UniProt O14757)", "T"),
    ("N#Cc1ncc2nc1OCC/C=C\\COc1ccc(OCCCCCN3CCOCC3)cc1NC(=O)N2", "Serine/threonine-protein kinase Chk1 (Homo sapiens, UniProt O14757)", "T"),
    ("CCOc1ccc2c(c1)NC(=O)Nc1cnc(C#N)c(n1)OCCCCCO2", "Serine/threonine-protein kinase Chk1 (Homo sapiens, UniProt O14757)", "F"),
    ("N#Cc1ncc2nc1OCC/C=C\\COc1ccc(CCO)cc1NC(=O)N2", "Serine/threonine-protein kinase Chk1 (Homo sapiens, UniProt O14757)", "F"),
    ("N#Cc1ncc2nc1OCCCCCOc1ccc(CCCO)cc1NC(=O)N2", "Serine/threonine-protein kinase Chk1 (Homo sapiens, UniProt O14757)", "F"),
    ("CCOc1ccc2c(c1)NC(=O)Nc1cnc(C#N)c(n1)OCC/C=C\\CO2", "Serine/threonine-protein kinase Chk1 (Homo sapiens, UniProt O14757)", "F"),
    ("N#Cc1ncc2nc1OCCCCCOc1ccc(OCCCCCN3CCOCC3)cc1NC(=O)N2", "Serine/threonine-protein kinase Chk1 (Homo sapiens, UniProt O14757)", "T"),
    ("N#Cc1ncc2nc1OCCCCOc1ccc(OCCCN3CCOCC3)cc1NC(=O)N2", "Serine/threonine-protein kinase Chk1 (Homo sapiens, UniProt O14757)", "T"),
    ("N#Cc1ncc2nc1OCC/C=C\\COc1ccc(O)cc1NC(=O)N2", "Serine/threonine-protein kinase Chk1 (Homo sapiens, UniProt O14757)", "F"),
    ("N#Cc1ncc2nc1OC/C=C\\COc1ccc(OCCCN3CCOCC3)cc1NC(=O)N2", "Serine/threonine-protein kinase Chk1 (Homo sapiens, UniProt O14757)", "T"),
    ("N#Cc1ncc2nc1OCCCCCOc1ccc(Br)cc1NC(=O)N2", "Serine/threonine-protein kinase Chk1 (Homo sapiens, UniProt O14757)", "F"),
    ("N#Cc1ncc2nc1OCC/C=C\\COc1ccccc1NC(=O)N2", "Serine/threonine-protein kinase Chk1 (Homo sapiens, UniProt O14757)", "F"),
    ("N#Cc1ncc2nc1OCCCCCOc1ccc(Cl)cc1NC(=O)N2", "Serine/threonine-protein kinase Chk1 (Homo sapiens, UniProt O14757)", "F"),
    ("COc1ccc2c(c1)NC(=O)Nc1cnc(C#N)c(n1)OCCCCCO2", "Serine/threonine-protein kinase Chk1 (Homo sapiens, UniProt O14757)", "F"),
    ("COc1ccc2c(c1)NC(=O)Nc1cnc(C#N)c(n1)OCC/C=C\\CO2", "Serine/threonine-protein kinase Chk1 (Homo sapiens, UniProt O14757)", "F"),
    ("N#Cc1ncc2nc1OCCCCCOc1ccc(CCO)cc1NC(=O)N2", "Serine/threonine-protein kinase Chk1 (Homo sapiens, UniProt O14757)", "F"),
    ("COc1ccc(NC(C)=O)cc1NC(=O)Nc1cnc(C#N)cn1", "Serine/threonine-protein kinase Chk1 (Homo sapiens, UniProt O14757)", "F"),
    ("N#Cc1ncc2nc1OC/C=C\\COc1ccc(OCCCCCN3CCCOC3)cc1NC(=O)N2", "Serine/threonine-protein kinase Chk1 (Homo sapiens, UniProt O14757)", "T"),
    ("N#Cc1ncc2nc1OCCCCOc1ccc(OCCCCN3CCOCC3)cc1NC(=O)N2", "Serine/threonine-protein kinase Chk1 (Homo sapiens, UniProt O14757)", "T"),
    ("N#Cc1ncc2nc1OCC/C=C\\COc1ccc(Br)cc1NC(=O)N2", "Serine/threonine-protein kinase Chk1 (Homo sapiens, UniProt O14757)", "F"),
    ("CC(=O)Nc1ccc2c(c1)NC(=O)Nc1cnc(C#N)c(n1)OCCCCCO2", "Serine/threonine-protein kinase Chk1 (Homo sapiens, UniProt O14757)", "T"),
    ("N#Cc1ncc2nc1OCC/C=C\\COc1ccc(OCCCN3CCOCC3)cc1NC(=O)N2", "Serine/threonine-protein kinase Chk1 (Homo sapiens, UniProt O14757)", "T"),
    ("N#Cc1ncc2nc1OCCCCOc1ccc(OCCCCCN3CCCOC3)cc1NC(=O)N2", "Serine/threonine-protein kinase Chk1 (Homo sapiens, UniProt O14757)", "T"),
    ("Cc1ccc2c(c1)NC(=O)Nc1cnc(C#N)c(n1)OCC/C=C\\CO2", "Serine/threonine-protein kinase Chk1 (Homo sapiens, UniProt O14757)", "F"),
    ("N#Cc1ncc2nc1OC/C=C\\COc1ccc(Cl)cc1NC(=O)N2", "Serine/threonine-protein kinase Chk1 (Homo sapiens, UniProt O14757)", "T"),
    ("N#Cc1ncc2nc1OCCCCCOc1ccc(OCCCCN3CCOCC3)cc1NC(=O)N2", "Serine/threonine-protein kinase Chk1 (Homo sapiens, UniProt O14757)", "T"),
    ("N#Cc1ncc2nc1OCC/C=C\\COc1ccc(OCCO)cc1NC(=O)N2", "Serine/threonine-protein kinase Chk1 (Homo sapiens, UniProt O14757)", "F"),
    ("CN(C)CCOc1ccc2c(c1)NC(=O)Nc1cnc(C#N)c(n1)OCC/C=C\\CO2", "Serine/threonine-protein kinase Chk1 (Homo sapiens, UniProt O14757)", "F"),
    ("N#Cc1ncc2nc1OCCCCCOc1ccc(OCCCN3CCOCC3)cc1NC(=O)N2", "Serine/threonine-protein kinase Chk1 (Homo sapiens, UniProt O14757)", "T"),
    ("N#Cc1ncc2nc1OCC/C=C\\COc1ccc(OCCCCN3CCOCC3)cc1NC(=O)N2", "Serine/threonine-protein kinase Chk1 (Homo sapiens, UniProt O14757)", "T"),
    ("N#Cc1ncc2nc1OCC/C=C\\COc1ccc(CCCOC3CCCCO3)cc1NC(=O)N2 (centres undefined)", "Serine/threonine-protein kinase Chk1 (Homo sapiens, UniProt O14757)", "F"),
    ("N#Cc1ncc2nc1OCC/C=C\\COc1ccc(CCCO)cc1NC(=O)N2", "Serine/threonine-protein kinase Chk1 (Homo sapiens, UniProt O14757)", "F"),
    ("N#Cc1ncc2nc1OCCCCCOc1ccccc1NC(=O)N2", "Serine/threonine-protein kinase Chk1 (Homo sapiens, UniProt O14757)", "F"),
]
